TEST SYSTEM: T1, Soluble IGF-1R (sIGF-1R), R&D Systems Cat. # 391-GR/CF (UniProt P08069 31-935, limits assumed)
T1 construct: extracellular domain
PROTOCOL TEXT: phage ELISA
Cut-off 7 on Ratio over Background, inclusive. At or above means criterion met; below means criterion not met.

// known answers, use as guide
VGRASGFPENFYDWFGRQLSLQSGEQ [H2CA-4-H6-IGFR]    criterion met
GFREGSFYDWFQAQVT [E4Dα-2-D11-IR]    criterion met
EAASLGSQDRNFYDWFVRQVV [A6S-2-D11-IR]    criterion met

Task: Is the recorded value of Ratio over Background equal to or greater than 7 for this binder? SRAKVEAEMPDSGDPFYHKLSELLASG [B6Hα-1-A3-IR]
Result: criterion not met

Task: Is the recorded value of Ratio over Background equal to or greater than 7 for this binder? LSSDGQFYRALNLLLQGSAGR [20E2B-2-B7-IGFR]
Result: criterion not met

Task: Is the recorded value of Ratio over Background equal to or greater than 7 for this binder? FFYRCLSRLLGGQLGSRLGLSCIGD [20C-3-E4-IGFR]
Result: criterion met

Task: Is the recorded value of Ratio over Background equal to or greater than 7 for this binder? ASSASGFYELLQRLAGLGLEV [20E2B-3-C4-IGFR]
Result: criterion met

Task: Is the recorded value of Ratio over Background equal to or greater than 7 for this binder? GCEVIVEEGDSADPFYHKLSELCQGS [B6Hα-2-D1-IR]
Result: criterion not met

Task: Is the recorded value of Ratio over Background equal to or greater than 7 for this binder? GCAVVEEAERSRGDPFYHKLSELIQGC [B6Hα-3-E7-IR]
Result: criterion not met

Task: Is the recorded value of Ratio over Background equal to or greater than 7 for this binder? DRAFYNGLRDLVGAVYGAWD [R20α-4-20C11-IR]
Result: criterion met

Task: Is the recorded value of Ratio over Background equal to or greater than 7 for this binder? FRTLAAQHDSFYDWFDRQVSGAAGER [H2CA-3-C11-IGFR]
Result: criterion not met

Task: Is the recorded value of Ratio over Background equal to or greater than 7 for this binder? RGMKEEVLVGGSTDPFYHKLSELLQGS [B6Hα-3-F11-IR]
Result: criterion met

Cited source: patent US20070265189A1
